# ASSAY_DETAILS: Ex vivo biodistribution in PC-3 tumor-bearing mice
# Set-up: species or system NRG mice
# EXPERIMENTAL_CONDITIONS: male, NRG (NOD.Cg-Rag1^tm1Mom Il2rg^tm1Wjl/SzJ), mouse, tumor and kidney, iv, total radioactivity, 1 h blocked: co-injected with 100 µg of [D-Phe6,Leu-NHEt13,des-Met14]Bombesin(6-14), n = 4; read-out: Tumor/kidney uptake ratio
VALUE_TYPE: tissue to tissue ratio at 1 h
Form: value (number only, do not type unit).

State the recorded tissue to tissue ratio at 1 h for this entry: CC(C)C[C@H](NC(=O)[C@H](Cc1c[nH]cn1)NC(=O)CNC(=O)[C@@H](NC(=O)[C@H](C)NC(=O)[C@H](Cc1c[nH]c2ccccc12)NC(=O)[C@H](CCC(N)=O)NC(=O)[C@@H](Cc1ccccc1)NC(=O)CN1CCC(NC(=O)CN2CCN(CC(=O)O)CCN(CC(=O)O)CCN(CC(=O)O)CC2)CC1)C(C)C)C(=O)N1CSC[C@H]1C(N)=O [[^68Ga]Ga-TacBOMB2, metal not drawn]
0.47

====

tissue to tissue ratio at 1 h listing for selected compounds.
# ASSAY_DETAILS: Ex vivo biodistribution in PC-3 tumor-bearing mice
# Parameters: species or system NRG mice
# EXPERIMENTAL_CONDITIONS: male, NRG (NOD.Cg-Rag1^tm1Mom Il2rg^tm1Wjl/SzJ), mouse, tumor and intestines, iv, total radioactivity, 1 h post-injection, n = 4; read-out: Tumor/intestines uptake ratio
Form: value (number only, do not type unit).

| COMPOUND | VALUE_TYPE | OBS_VALUE |
| --- | --- | --- |
| CC(C)C[C@H](NC(=O)[C@H](Cc1c[nH]cn1)NC(=O)CNC(=O)[C@@H](NC(=O)[C@H](C)NC(=O)[C@H](Cc1c[nH]c2ccccc12)NC(=O)[C@H](CCC(N)=O)NC(=O)[C@@H](Cc1ccccc1)NC(=O)CN1CCC(NC(=O)CN2CCN(CC(=O)O)CCN(CC(=O)O)CCN(CC(=O)O)CC2)CC1)C(C)C)C(=O)N1CSC[C@H]1C(N)=O [[^68Ga]Ga-TacBOMB2, metal not drawn] | tissue to tissue ratio at 1 h | 10.5 |

Consider the record given below.
State the recorded tissue to tissue ratio at 1 h for this entry: CC(C)C[C@H](NC(=O)[C@H](Cc1c[nH]cn1)NC(=O)CNC(=O)[C@@H](NC(=O)[C@H](C)NC(=O)[C@H](Cc1c[nH]c2ccccc12)NC(=O)[C@H](CCC(N)=O)NC(=O)[C@@H](Cc1ccc2ccccc2c1)NC(=O)CN1CCC(NC(=O)CN2CCN(CC(=O)O)CCN(CC(=O)O)CCN(CC(=O)O)CC2)CC1)C(C)C)C(=O)N1CSC[C@H]1C(N)=O [[^68Ga]Ga-TacBOMB3, metal not drawn]
4.93

====

# ASSAY_DETAILS: Ex vivo biodistribution in PC-3 tumor-bearing mice
# Set-up: species or system NRG mice
# EXPERIMENTAL_CONDITIONS: male, NRG (NOD.Cg-Rag1^tm1Mom Il2rg^tm1Wjl/SzJ), mouse, tumor and intestines, iv, total radioactivity, 1 h blocked: co-injected with 100 µg of [D-Phe6,Leu-NHEt13,des-Met14]Bombesin(6-14), n = 4; read-out: Tumor/intestines uptake ratio
VALUE_TYPE: tissue to tissue ratio at 1 h

State the recorded tissue to tissue ratio at 1 h for this entry: CC(C)C[C@H](NC(=O)[C@H](Cc1c[nH]cn1)NC(=O)CNC(=O)[C@@H](NC(=O)[C@H](C)NC(=O)[C@H](Cc1c[nH]c2ccccc12)NC(=O)[C@H](CCC(N)=O)NC(=O)[C@@H](Cc1ccccc1)NC(=O)CN1CCC(NC(=O)CN2CCN(CC(=O)O)CCN(CC(=O)O)CCN(CC(=O)O)CC2)CC1)C(C)C)C(=O)N1CSC[C@H]1C(N)=O [[^68Ga]Ga-TacBOMB2, metal not drawn]
3.33

====

# ASSAY_DETAILS: Ex vivo biodistribution in PC-3 tumor-bearing mice
# Parameters: species or system NRG mice
# EXPERIMENTAL_CONDITIONS: male, NRG (NOD.Cg-Rag1^tm1Mom Il2rg^tm1Wjl/SzJ), mouse, tumor and bone, iv, total radioactivity, 1 h post-injection, n = 4; read-out: Tumor/bone uptake ratio
VALUE_TYPE: tissue to tissue ratio at 1 h
Form: value (number only, do not type unit).

| COMPOUND | tissue to tissue ratio at 1 h |
| --- | --- |
| CC(C)C[C@H](NC(=O)[C@H](Cc1c[nH]cn1)NC(=O)CNC(=O)[C@@H](NC(=O)[C@H](C)NC(=O)[C@H](Cc1c[nH]c2ccccc12)NC(=O)[C@H](CCC(N)=O)NC(=O)[C@@H](Cc1ccccc1)NC(=O)CN1CCC(NC(=O)CN2CCN(CC(=O)O)CCN(CC(=O)O)CCN(CC(=O)O)CC2)CC1)C(C)C)C(=O)N1CSC[C@H]1C(N)=O [[^68Ga]Ga-TacBOMB2, metal not drawn] | 28.9 |

Consider the record given below.
State the recorded tissue to tissue ratio at 1 h for this entry: CC(C)C[C@H](NC(=O)[C@H](Cc1c[nH]cn1)NC(=O)CNC(=O)[C@@H](NC(=O)[C@H](C)NC(=O)[C@H](Cc1c[nH]c2ccccc12)NC(=O)[C@H](CCC(N)=O)NC(=O)[C@@H](Cc1ccc2ccccc2c1)NC(=O)CN1CCC(NC(=O)CN2CCN(CC(=O)O)CCN(CC(=O)O)CCN(CC(=O)O)CC2)CC1)C(C)C)C(=O)N1CSC[C@H]1C(N)=O [[^68Ga]Ga-TacBOMB3, metal not drawn]
29.9

====

# ASSAY_DETAILS: Ex vivo biodistribution in PC-3 tumor-bearing mice
# Parameters: species or system NRG mice
# EXPERIMENTAL_CONDITIONS: mouse, bone, intravenous, 100 ug, 1 h blocked: co-injected with 100 µg of [D-Phe6,Leu-NHEt13,des-Met14]Bombesin(6-14), n = 4; read-out: Bone uptake
VALUE_TYPE: tissue uptake at 1 h (%ID/g)
All answers are understood in %ID/g, so give the number only.

State the recorded tissue uptake at 1 h for this entry: CC(C)C[C@H](NC(=O)[C@H](Cc1c[nH]cn1)NC(=O)CNC(=O)[C@@H](NC(=O)[C@H](C)NC(=O)[C@H](Cc1c[nH]c2ccccc12)NC(=O)[C@H](CCC(N)=O)NC(=O)[C@@H](Cc1ccccc1)NC(=O)CN1CCC(NC(=O)CN2CCN(CC(=O)O)CCN(CC(=O)O)CCN(CC(=O)O)CC2)CC1)C(C)C)C(=O)N1CSC[C@H]1C(N)=O [[^68Ga]Ga-TacBOMB2, metal not drawn]
0.1

====

# ASSAY_DETAILS: Ex vivo biodistribution in PC-3 tumor-bearing mice
# Set-up: species or system NRG mice
# EXPERIMENTAL_CONDITIONS: male, NRG (NOD.Cg-Rag1^tm1Mom Il2rg^tm1Wjl/SzJ), mouse, tumor and pancreas, iv, total radioactivity, 1 h blocked: co-injected with 100 µg of [D-Phe6,Leu-NHEt13,des-Met14]Bombesin(6-14), n = 4; read-out: Tumor/pancreas uptake ratio
VALUE_TYPE: tissue to tissue ratio at 1 h

State the recorded tissue to tissue ratio at 1 h for this entry: CC(C)C[C@H](NC(=O)[C@H](Cc1c[nH]cn1)NC(=O)CNC(=O)[C@@H](NC(=O)[C@H](C)NC(=O)[C@H](Cc1c[nH]c2ccccc12)NC(=O)[C@H](CCC(N)=O)NC(=O)[C@@H](Cc1ccccc1)NC(=O)CN1CCC(NC(=O)CN2CCN(CC(=O)O)CCN(CC(=O)O)CCN(CC(=O)O)CC2)CC1)C(C)C)C(=O)N1CSC[C@H]1C(N)=O [[^68Ga]Ga-TacBOMB2, metal not drawn]
6.22

====

# ASSAY_DETAILS: Ex vivo biodistribution in PC-3 tumor-bearing mice
# Set-up: species or system NRG mice
# EXPERIMENTAL_CONDITIONS: mouse, blood, intravenous, 100 ug, 1 h blocked: co-injected with 100 µg of [D-Phe6,Leu-NHEt13,des-Met14]Bombesin(6-14), n = 4; read-out: Blood uptake
VALUE_TYPE: tissue uptake at 1 h (%ID/g)
All answers are understood in %ID/g, so give the number only.

State the recorded tissue uptake at 1 h for this entry: CC(C)C[C@H](NC(=O)[C@H](Cc1c[nH]cn1)NC(=O)CNC(=O)[C@@H](NC(=O)[C@H](C)NC(=O)[C@H](Cc1c[nH]c2ccccc12)NC(=O)[C@H](CCC(N)=O)NC(=O)[C@@H](Cc1ccccc1)NC(=O)CN1CCC(NC(=O)CN2CCN(CC(=O)O)CCN(CC(=O)O)CCN(CC(=O)O)CC2)CC1)C(C)C)C(=O)N1CSC[C@H]1C(N)=O [[^68Ga]Ga-TacBOMB2, metal not drawn]
0.55

Source of measurements: paper PMC9962964
